Where do these numbers come from? They come from patent US20080275058A1.

target: 5-HT2c (Homo sapiens, UniProt P28335); construct: purchased Euroscreen/BioSignal Packard Inc; assay: Radioligand binding, 5-HT2c ([3H]Mesulergine); conditions: Table 4; [3H]Mesulergine 1 nM; read-out: Binding affinity, IC50 (nM) 5-HT2c
Sequence (P28335 33-458): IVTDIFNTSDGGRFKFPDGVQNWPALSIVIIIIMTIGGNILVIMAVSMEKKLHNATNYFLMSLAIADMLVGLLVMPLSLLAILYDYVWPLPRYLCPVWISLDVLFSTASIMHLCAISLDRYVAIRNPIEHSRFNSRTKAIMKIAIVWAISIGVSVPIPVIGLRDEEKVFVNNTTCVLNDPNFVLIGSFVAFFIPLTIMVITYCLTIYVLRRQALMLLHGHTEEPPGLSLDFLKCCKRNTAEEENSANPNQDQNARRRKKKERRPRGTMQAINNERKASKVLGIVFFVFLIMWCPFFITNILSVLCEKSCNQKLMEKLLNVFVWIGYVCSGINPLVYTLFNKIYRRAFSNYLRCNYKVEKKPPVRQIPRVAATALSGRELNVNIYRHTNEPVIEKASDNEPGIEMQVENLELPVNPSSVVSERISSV
measurement label: IC50 (nM)
Dear colleague, please return just the value in nM, with no unit written.

- compound: "CC1(c2ccc(O)cc2)C(=O)c2c(N3CCNCC3)cc(Cl)cc2N(Cc2cccc(N)c2)C1=O (centres unmarked)"
  unit text: "nM"
  assay result: 7330
- compound: "CN1CCN(c2cc(Cl)cc3c2C(=O)C(C)(c2ccc(O)cc2)C(=O)N3Cc2ccccc2)CC1 (centres unmarked)"
  unit text: "nM"
  assay result: 487
- compound: "CN1CCN(c2cc(Cl)cc3c2C(=O)[C@@](C)(c2ccc(N)cc2)C(=O)N3Cc2ccccc2)CC1 (stereo in doubt)"
  unit text: "nM"
  assay result: 5780

As a next step, examine the compound that follows.
Can you share its IC50? I mean this compound: COc1ccc(C2(C)C(=O)c3c(N4CCNCC4)cc(Cl)cc3N(Cc3ccc(-c4ccccc4)cc3)C2=O)cc1 (centres unmarked) 8090
